- measurement target: Factor X (FX), P00742
- Sequence (P00742 whole entry, looked up): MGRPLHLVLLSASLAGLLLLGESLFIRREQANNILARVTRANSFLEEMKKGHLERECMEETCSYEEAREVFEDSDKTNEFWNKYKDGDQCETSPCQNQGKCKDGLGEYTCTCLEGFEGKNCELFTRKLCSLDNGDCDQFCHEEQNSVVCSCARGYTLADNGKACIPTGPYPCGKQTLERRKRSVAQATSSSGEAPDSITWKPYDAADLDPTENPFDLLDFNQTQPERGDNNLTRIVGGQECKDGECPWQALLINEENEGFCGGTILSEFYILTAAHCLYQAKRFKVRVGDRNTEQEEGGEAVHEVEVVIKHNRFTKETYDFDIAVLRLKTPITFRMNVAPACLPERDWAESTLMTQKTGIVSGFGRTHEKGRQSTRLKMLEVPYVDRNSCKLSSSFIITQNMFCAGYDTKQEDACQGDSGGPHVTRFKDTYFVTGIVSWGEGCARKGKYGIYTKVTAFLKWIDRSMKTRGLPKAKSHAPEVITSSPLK
assay readout: KM (µM)
Answers are plain numbers, in µM.

Recorded KM, per entry:
FIXa-Y155F/K247N/N249S/R318Y/R403E (protein) chain 1: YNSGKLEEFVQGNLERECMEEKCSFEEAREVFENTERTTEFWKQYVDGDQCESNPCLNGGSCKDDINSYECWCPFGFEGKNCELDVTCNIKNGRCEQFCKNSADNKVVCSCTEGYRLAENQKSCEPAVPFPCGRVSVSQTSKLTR chain 2: VVGGEDAKPGQFPWQVVLNGKVDAFCGGSIVNEKWIVTAAHCVETGVKITVVAGEHNIEETEHTEQNRSVIRIIPHHNYNAAINKYNHDIALLELDEPLVLNSYVTPICIADKEYTNIFLKFGSGYVSGWGRVFHKGYSALVLQYLRVPLVDRATCLRSTKFTIYNNMFCAGFHEGGRDSCQGDSGGPHVTEVEGTSFLTGIISWGEECAMKGKYGIYTKVSEYVNWIKEKTKLT : 0.109
FIXa-Y155F/R338E/T343R/R403E/E410N (protein) chain 1: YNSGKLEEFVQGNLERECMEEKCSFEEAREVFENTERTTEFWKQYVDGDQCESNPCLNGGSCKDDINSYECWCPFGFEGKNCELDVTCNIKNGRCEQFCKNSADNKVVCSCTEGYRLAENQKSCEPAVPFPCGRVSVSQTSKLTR chain 2: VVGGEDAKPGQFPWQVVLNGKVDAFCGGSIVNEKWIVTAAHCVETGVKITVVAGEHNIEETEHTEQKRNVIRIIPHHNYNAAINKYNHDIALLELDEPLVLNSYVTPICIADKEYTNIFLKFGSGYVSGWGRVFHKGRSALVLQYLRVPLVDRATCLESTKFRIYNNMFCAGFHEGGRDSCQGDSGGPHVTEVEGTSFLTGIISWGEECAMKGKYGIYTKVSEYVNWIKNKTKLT : 0.0259
FIXa-K247N/N249S/R318Y/T343R/R403E (protein) chain 1: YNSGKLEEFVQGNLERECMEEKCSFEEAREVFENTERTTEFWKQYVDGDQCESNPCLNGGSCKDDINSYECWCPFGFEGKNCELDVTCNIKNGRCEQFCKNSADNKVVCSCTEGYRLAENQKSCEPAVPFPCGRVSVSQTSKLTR chain 2: VVGGEDAKPGQFPWQVVLNGKVDAFCGGSIVNEKWIVTAAHCVETGVKITVVAGEHNIEETEHTEQNRSVIRIIPHHNYNAAINKYNHDIALLELDEPLVLNSYVTPICIADKEYTNIFLKFGSGYVSGWGRVFHKGYSALVLQYLRVPLVDRATCLRSTKFRIYNNMFCAGFHEGGRDSCQGDSGGPHVTEVEGTSFLTGIISWGEECAMKGKYGIYTKVSEYVNWIKEKTKLT : 0.105

API: the following record is the query input.
[ask] Request the reported KM associated with FIXa Y155F/R318Y/R338E/E410N (protein) chain 1: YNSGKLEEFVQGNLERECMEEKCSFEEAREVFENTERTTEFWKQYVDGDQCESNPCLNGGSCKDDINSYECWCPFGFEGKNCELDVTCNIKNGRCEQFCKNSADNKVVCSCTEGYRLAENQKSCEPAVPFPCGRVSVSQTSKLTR chain 2: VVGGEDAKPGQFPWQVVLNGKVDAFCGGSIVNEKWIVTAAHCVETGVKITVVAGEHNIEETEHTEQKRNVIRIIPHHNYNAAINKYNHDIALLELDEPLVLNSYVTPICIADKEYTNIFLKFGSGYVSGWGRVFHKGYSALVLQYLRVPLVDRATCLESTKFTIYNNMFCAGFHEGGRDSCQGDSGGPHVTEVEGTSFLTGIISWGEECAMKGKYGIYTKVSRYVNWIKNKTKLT
[reply] 0.016
